Biological target: HLA-B*07:02
Assay: IEDB peptide-MHC binding, purified MHC/competitive/fluorescence; filed as Kd, often an IC50 or EC50 that approximates it; bounds were set here for any values at or beyond the usual limits of such assays
Conditions: source organism: Coxiella burnetii
Below, each entry is listed with its recorded Kd.

Field: example entries. Status: answers known.
TPTFVIGNKA: ≥ 1 mM
TPDFPQLFF: ≥ 0.05 mM
LPRNRYRLVF: ≥ 0.005 mM

Here is another sequence to look at.
Value lookup for Kd; key = KPLQVINRKY
≥ 1 mM

---

Below, each entry is listed with its recorded Kd.
Target: HLA-B*07:02
Test: IEDB peptide-MHC binding, purified MHC/competitive/fluorescence; filed as Kd, often an IC50 or EC50 that approximates it; bounds were set here for any values at or beyond the usual limits of such assays
Conditions: source organism: Coxiella burnetii

LPQKPWWKF: ≥ 1000 µM
LPRRHNFYNY: ≥ 1000 µM

Here is another sequence to look at.
Kindly state the measured Kd obtained for SPHPRVNQF with HLA-B*07:02.
≥ 5 µM
